Reported Solubility Water by item:
Experiment: Solubility in water of nateglinide salts
Format: physicochemical
property-measured: Solubility Water

* [Ca] | 540 µg/mL
* CC(C)[C@H]1CC[C@H](C(=O)N[C@H](Cc2ccccc2)C(=O)[O-])CC1.[Na+] [Sodium] | >40000 µg/mL
* [K+] | >40000 µg/mL
* CC(C)[C@H]1CC[C@H](C(=O)N[C@H](Cc2ccccc2)C(=O)[O-])CC1.CC(C)[C@H]1CC[C@H](C(=O)N[C@H](Cc2ccccc2)C(=O)[O-])CC1.[Mg+2] | 450 µg/mL
* CC(C)[C@H]1CC[C@H](C(=O)N[C@H](Cc2ccccc2)C(=O)O)CC1.CNC[C@H](O)[C@@H](O)[C@H](O)[C@H](O)CO | 7300 µg/mL
* CC(C)[C@H]1CC[C@H](C(=O)N[C@H](Cc2ccccc2)C(=O)O)CC1 [Form H of nateglinide, reference compound] | 90 µg/mL

* * *

Test: Gain in weight at 84% RH (hygroscopicity) of nateglinide salts
Assay type: physicochemical
Conditions: 84% RH (relative humidity); * = XRPD changed, confirmed by Thermalgravimetry
property-measured: Gain % (gain in weight at 84% RH)

- CC(C)[C@H]1CC[C@H](C(=O)N[C@H](Cc2ccccc2)C(=O)O)CC1 [Form H of nateglinide, reference compound]: <0.1%
- CC(C)[C@H]1CC[C@H](C(=O)N[C@H](Cc2ccccc2)C(=O)O)CC1.NCCCCC(N)C(=O)O [Comp. No. 14]: 1.3%
- CC(C)[C@H]1CC[C@H](C(=O)N[C@H](Cc2ccccc2)C(=O)[O-])CC1.CC(C)[C@H]1CC[C@H](C(=O)N[C@H](Cc2ccccc2)C(=O)[O-])CC1.[Mg+2] [Comp. No. 11]: <0.1%
- CC(C)[C@H]1CC[C@H](C(=O)N[C@H](Cc2ccccc2)C(=O)O)CC1.CNC[C@H](O)[C@@H](O)[C@H](O)[C@H](O)CO [Comp. No. 12]: <0.1%
- CC(C)C1CCC(C(=O)NC(Cc2ccccc2)C(=O)[O-])CC1.[K+] (stereo not drawn) [Compound No. 5]: 8.2* %
- CC(C)C1CCC(C(=O)NC(Cc2ccccc2)C(=O)O)CC1.N (stereo not drawn) [Comp. No. 17]: <0.1%
- CC(C)[C@H]1CC[C@H](C(=O)N[C@H](Cc2ccccc2)C(=O)[O-])CC1.[Na+] [Compound No. 1]: 1.19%
- CC(C)C1CCC(C(=O)NC(Cc2ccccc2)C(=O)[O-])CC1.CC(C)C1CCC(C(=O)NC(Cc2ccccc2)C(=O)[O-])CC1.[Ca+2] (stereo not drawn) [Compound No. 9]: 0.4%
- CC(C)[C@H]1CC[C@H](C(=O)N[C@H](Cc2ccccc2)C(=O)O)CC1.NC(CO)(CO)CO [Comp. No. 13]: <0.1%
